Target: human CD33 W22N (human, UniProt P20138 18-364)
Sequence (P20138 18-364 W22N limits assumed): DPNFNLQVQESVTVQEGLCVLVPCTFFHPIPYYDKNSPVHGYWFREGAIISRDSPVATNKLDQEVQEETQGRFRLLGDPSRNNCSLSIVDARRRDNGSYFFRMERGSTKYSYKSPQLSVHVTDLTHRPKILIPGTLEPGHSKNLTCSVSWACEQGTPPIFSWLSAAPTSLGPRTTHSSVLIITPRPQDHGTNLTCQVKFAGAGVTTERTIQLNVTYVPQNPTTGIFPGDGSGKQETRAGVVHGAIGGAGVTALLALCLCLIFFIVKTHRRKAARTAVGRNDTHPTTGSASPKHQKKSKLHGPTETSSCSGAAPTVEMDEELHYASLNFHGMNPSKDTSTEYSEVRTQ
Assay: flow cytometry, mutant on cells, IgG
PROPERTY: Mean % WT Binding (% WT binding)
One number for each entry, in % WT binding.

Examples with their reported Mean % WT Binding follow.
Refmab #4 (antibody, human IgG1, V domains shown, Tested in IgG format; human IgG1 Fc silent (PG-LALA)) VH: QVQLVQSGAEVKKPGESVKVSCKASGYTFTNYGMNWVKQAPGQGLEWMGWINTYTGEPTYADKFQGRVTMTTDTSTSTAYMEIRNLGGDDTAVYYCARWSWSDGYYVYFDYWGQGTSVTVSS VL: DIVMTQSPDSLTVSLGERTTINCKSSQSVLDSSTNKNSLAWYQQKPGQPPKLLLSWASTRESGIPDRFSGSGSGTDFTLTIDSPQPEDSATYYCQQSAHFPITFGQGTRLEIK: 100
Refmab #2 (antibody, human IgG1, V domains shown, Tested in IgG format; human IgG1 Fc silent (PG-LALA)) VH: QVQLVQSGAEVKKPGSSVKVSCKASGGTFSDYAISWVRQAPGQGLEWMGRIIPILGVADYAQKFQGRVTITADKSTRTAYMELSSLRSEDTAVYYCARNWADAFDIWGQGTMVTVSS VL: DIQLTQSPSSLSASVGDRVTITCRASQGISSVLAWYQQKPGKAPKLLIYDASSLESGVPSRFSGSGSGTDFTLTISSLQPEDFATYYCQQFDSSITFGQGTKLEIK: 107

What the record says about Refmab #3 (antibody, human IgG1, V domains shown, Tested in IgG format; human IgG1 Fc silent (PG-LALA)) VH: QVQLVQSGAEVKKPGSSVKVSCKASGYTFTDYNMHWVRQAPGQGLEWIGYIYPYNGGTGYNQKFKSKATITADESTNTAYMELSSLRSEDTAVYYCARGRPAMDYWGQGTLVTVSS VL: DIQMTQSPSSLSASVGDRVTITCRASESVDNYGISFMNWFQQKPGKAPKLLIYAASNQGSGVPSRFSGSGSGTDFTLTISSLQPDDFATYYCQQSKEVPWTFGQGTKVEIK : Mean % WT Binding is 3.5
